# log10 IC50 against Vascular endothelial growth factor receptor 2 (Homo sapiens), merged from multiple literature sources
# Sequence (P35968 whole entry): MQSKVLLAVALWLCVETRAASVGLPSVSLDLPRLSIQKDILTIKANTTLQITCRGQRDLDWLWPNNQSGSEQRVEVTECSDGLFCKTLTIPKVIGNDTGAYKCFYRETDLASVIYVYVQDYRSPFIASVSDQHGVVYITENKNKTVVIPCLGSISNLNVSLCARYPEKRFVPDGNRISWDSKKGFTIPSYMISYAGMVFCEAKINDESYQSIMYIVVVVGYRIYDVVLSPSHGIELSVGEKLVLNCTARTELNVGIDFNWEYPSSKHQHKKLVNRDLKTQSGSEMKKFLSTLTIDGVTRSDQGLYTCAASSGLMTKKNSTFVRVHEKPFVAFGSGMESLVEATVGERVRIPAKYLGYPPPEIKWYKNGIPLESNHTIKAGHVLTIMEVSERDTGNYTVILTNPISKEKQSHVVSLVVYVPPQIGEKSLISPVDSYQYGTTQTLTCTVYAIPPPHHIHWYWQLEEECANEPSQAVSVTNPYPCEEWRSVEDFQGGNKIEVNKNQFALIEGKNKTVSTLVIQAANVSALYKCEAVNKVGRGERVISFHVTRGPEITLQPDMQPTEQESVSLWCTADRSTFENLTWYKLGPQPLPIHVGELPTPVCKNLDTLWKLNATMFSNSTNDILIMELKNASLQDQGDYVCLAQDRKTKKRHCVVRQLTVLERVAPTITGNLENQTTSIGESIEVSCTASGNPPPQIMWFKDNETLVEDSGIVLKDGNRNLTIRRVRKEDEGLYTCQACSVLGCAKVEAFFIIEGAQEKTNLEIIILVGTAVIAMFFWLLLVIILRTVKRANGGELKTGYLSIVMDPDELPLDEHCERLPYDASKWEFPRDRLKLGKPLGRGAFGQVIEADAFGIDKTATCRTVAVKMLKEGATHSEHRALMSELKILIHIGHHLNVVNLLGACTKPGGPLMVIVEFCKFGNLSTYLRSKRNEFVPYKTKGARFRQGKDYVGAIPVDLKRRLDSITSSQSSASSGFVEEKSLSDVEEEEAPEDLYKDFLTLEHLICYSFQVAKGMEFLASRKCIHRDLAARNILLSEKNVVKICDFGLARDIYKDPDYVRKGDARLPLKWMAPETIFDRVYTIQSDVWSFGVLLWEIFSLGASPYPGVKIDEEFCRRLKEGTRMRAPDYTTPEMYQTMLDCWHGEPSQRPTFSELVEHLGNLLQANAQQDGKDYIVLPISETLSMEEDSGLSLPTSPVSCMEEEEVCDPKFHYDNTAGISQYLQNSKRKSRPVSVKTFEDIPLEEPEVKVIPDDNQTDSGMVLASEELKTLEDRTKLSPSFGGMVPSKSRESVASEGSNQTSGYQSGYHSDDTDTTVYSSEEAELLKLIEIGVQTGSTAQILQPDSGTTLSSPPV
Base-10 log of IC50, unit nM.

[[record]]
smiles_text = "Cc1ccc(Nc2ncnn3cccc23)cc1O"
test_readout = "log10 IC50"
recorded_number = 2.71


For the 4 compounds below, give their log10 IC50 values.
1. CN1CCN(c2ccc3nc(-c4c(N)c5cc(N)ccc5[nH]c4=O)[nH]c3c2)CC1
2. O=C(Nc1ccc(Oc2ccncn2)cc1)Nc1cccc(C(F)(F)F)c1
3. CNS(=O)(=O)c1cc(Nc2n[nH]c3cc(-c4cnn(CC(=O)Nc5ccc(Cl)c(C(F)(F)F)c5)c4)ccc23)ccc1C
4. CNC(=O)N1CCOc2cc(Oc3ccnc4cc(OC)c(OC)cc34)ccc21

RESULT:
1.28
1.70
2.61
1.60

For the 2 compounds below, give their log10 IC50 values.
1. COc1cc2c(Nc3ccc(NC(=O)c4ccccc4)cc3)ncnc2cc1OCCN1CCCCC1
2. Cc1ccc(F)c(NC(=O)Nc2ccc(-c3cc(O)nc4[nH]nc(C)c34)cc2)c1

RESULT:
1: 3.67; 2: 3.27
